- experimental.system: 5-HT2A receptor (Homo sapiens (Human), UniProt P28223)
- Sequence (P28223 whole entry): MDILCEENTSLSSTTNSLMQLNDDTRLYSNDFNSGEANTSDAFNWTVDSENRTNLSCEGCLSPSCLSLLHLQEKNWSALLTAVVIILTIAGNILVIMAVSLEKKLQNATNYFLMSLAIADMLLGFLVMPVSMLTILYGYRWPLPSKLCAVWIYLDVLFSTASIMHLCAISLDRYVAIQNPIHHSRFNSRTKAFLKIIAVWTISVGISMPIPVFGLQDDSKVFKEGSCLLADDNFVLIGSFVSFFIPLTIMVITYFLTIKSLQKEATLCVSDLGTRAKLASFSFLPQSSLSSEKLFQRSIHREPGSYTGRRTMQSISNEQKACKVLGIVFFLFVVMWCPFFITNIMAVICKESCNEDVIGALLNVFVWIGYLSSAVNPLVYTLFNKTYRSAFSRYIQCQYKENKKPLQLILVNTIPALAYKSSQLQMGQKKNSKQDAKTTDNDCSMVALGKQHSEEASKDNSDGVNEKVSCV
- assay.procedure: Test for 5-HT2A antagonistic activity (calcium ion antagonism, FLIPR, CHO-K1/5-HT2A cells)
- Assay type: cell-based
- condition.parameters: 100 nM a-methyl-5-HT, Ca2+ signal
Measured log10 IC50 of individual entries
Form field - Quantity: IC50; Unit: nM; Scale: log10

Here's what some known entries look like.
[
  {
    "compound": "CN1CCC(N(Cc2ccc(F)cc2F)C(=O)NCc2ccc3c(c2)CC(C)(C)O3)CC1",
    "experimental.system": "5-HT2A receptor (Homo sapiens (Human), UniProt P28223)",
    "log10 IC50": 1.32
  },
  {
    "compound": "CC(C)OCc1ccc(CNC(=O)N(Cc2ccc(F)cc2)C2CCN(C)CC2)cc1",
    "experimental.system": "5-HT2A receptor (Homo sapiens (Human), UniProt P28223)",
    "log10 IC50": 0.32
  },
  {
    "compound": "CN1CCC(N(Cc2ccc(F)cn2)C(=O)NCc2cc(Br)c3c(c2)CC(C)(C)O3)CC1",
    "experimental.system": "5-HT2A receptor (Homo sapiens (Human), UniProt P28223)",
    "log10 IC50": 0.82
  },
  {
    "compound": "CN1CCC(N(Cc2ccc(F)cn2)C(=O)NCc2ccc(OCC(C)(C)F)cc2)CC1",
    "experimental.system": "5-HT2A receptor (Homo sapiens (Human), UniProt P28223)",
    "log10 IC50": 0.50
  },
  {
    "compound": "CN1CCC(N(Cc2ccc(F)cn2)C(=O)NCc2ccc(OC(C)(C)C)cc2)CC1",
    "experimental.system": "5-HT2A receptor (Homo sapiens (Human), UniProt P28223)",
    "log10 IC50": 0.76
  },
  {
    "compound": "CN1CCC(N(Cc2ccc(F)cn2)C(=O)NCc2ccc(OCC(F)F)cc2)CC1",
    "experimental.system": "5-HT2A receptor (Homo sapiens (Human), UniProt P28223)",
    "log10 IC50": 0.34
  },
  {
    "compound": "CC(C)COc1ccc(CNC(=O)N(Cc2ccc(F)cn2)C2CCN(C)CC2)nc1",
    "experimental.system": "5-HT2A receptor (Homo sapiens (Human), UniProt P28223)",
    "log10 IC50": 1.06
  },
  {
    "compound": "CN1CCC(N(Cc2ccc(F)cn2)C(=O)NCc2ccc(OCCCCF)cc2)CC1",
    "experimental.system": "5-HT2A receptor (Homo sapiens (Human), UniProt P28223)",
    "log10 IC50": 0.37
  }
]

Exercise: log10 IC50 lookup needed for CN1CCC(N(Cc2ccc(F)cc2)C(=O)NCc2ccc3c(c2)CC(C)(C)O3)CC1 , thanks.
Key: 1.24

Exercise: Now the same for CN1CCC(N(Cc2ccc(F)cn2)C(=O)NCc2ccc3c(c2)C=CC(C)(C)O3)CC1
Key: 1.24

Exercise: Now the same for CN1CCC(N(Cc2ccc(F)cc2F)C(=O)NCc2ccc(OCC(F)F)cc2)CC1
Key: 0.95

Exercise: Now the same for CC(C)c1cc2cc(CNC(=O)N(Cc3ccc(F)cn3)C3CCN(C)CC3)ccc2o1
Key: 1.32

Exercise: Now the same for CN1CCC(N(Cc2ncc(F)cc2F)C(=O)NCc2ccc3c(c2)CC(C)(C)O3)CC1
Key: 0.52

Exercise: Now the same for CC(C)C1Cc2cc(CNC(=O)N(Cc3ccc(F)cn3)C3CCN(C)CC3)ccc2O1 (stereo not drawn)
Key: 1.00

Exercise: Now the same for CN1CCC(N(Cc2ccc(F)cn2)C(=O)NCc2ccc(OCCF)cc2)CC1
Key: 0.32

Exercise: Now the same for CC(C)COc1ccc(CNC(=O)N(Cc2ccc(F)cc2)C2CCN(C)CC2)nc1
Key: 0.84

Exercise: Now the same for CN1CCC(N(Cc2ccc(F)cn2)C(=O)NCc2ccc(OCCC(F)F)cc2)CC1
Key: 0.67

Exercise: Now the same for CC1(C)Cc2cc(CNC(=O)N(Cc3ccc(F)cn3)C3CCNCC3)ccc2O1
Key: 0.78

Exercise: Now the same for CN1CCC(N(Cc2ccc(F)cn2)C(=O)NCc2ccc(OCCCC(F)F)cc2)CC1
Key: 0.63

###

- experimental.system: 5-HT2A receptor (Homo sapiens (Human))
- assay.procedure: Test for 5-HT2A antagonistic activity (calcium ion antagonism, FLIPR, CHO-K1/5-HT2A cells)
- Type: cell-based
- condition.parameters: 100 nM a-methyl-5-HT, Ca2+ signal
Measured pIC50 of individual entries
For clarity, pIC50 is expressed as the negative log10 of concentration in mol/L.

Exercise: pIC50 lookup needed for CN1CCC(N(Cc2ccc(F)cn2)C(=O)NCc2ccc(O)cc2)CC1 , thanks.
Key: 7.94

Exercise: Now the same for CN1CCC(N(Cc2ccc(F)cn2)C(=O)NCc2cc(Cl)c3c(c2)CC(C)(C)O3)CC1
Key: 8.02

Exercise: Now the same for CN1CCC(N(Cc2ccc(F)cn2)C(=O)NCc2ccc(OCCC(F)(F)F)cc2)CC1
Key: 8.33

Exercise: Now the same for CCN1CCC(N(Cc2ccc(F)cn2)C(=O)NCc2ccc3c(c2)CC(C)(C)O3)CC1
Key: 8.50

Exercise: Now the same for CC(C)COc1ccc(CNC(=O)N(Cc2ccc(F)nn2)C2CCN(C)CC2)cc1
Key: 7.83

Exercise: Now the same for CN1CCC(N(Cc2ccc(F)cn2)C(=O)NCc2ccc3c(c2)CCC(C)(C)O3)CC1
Key: 7.67

Exercise: Now the same for CC(C)COc1ccc(CNC(=O)N(Cc2ccc(F)cn2)C2CCN(C)CC2)cc1
Key: 8.06

Exercise: Now the same for CC(C)C(O)Cc1ccc(CNC(=O)N(Cc2ccc(F)cc2)C2CCN(C)CC2)cc1 (centres unmarked)
Key: 8.17

###

- assay.procedure: In-vivo pharmacokinetic test in rats after intragastric administration
- condition.parameters: rat, po, 46.7 umol/kg, SD rats, 20% Solutol, plasma
- Description: Blood was collected before administration and 0.25 h, 0.5 h, 1 h, 2 h, 3 h, 4 h, 6 h, 8 h, 12 h and 24 h after administration, respectively and placed in a heparinized EP tube, and the plasma was centrifugally separated. After the plasma was pre-treated, the concentrations of compounds in the plasma were determined by LC-MS/MS, and the pharmacokinetic parameters were calculated.
endpoint.name: half-life (h)
Numbers only here, please. The scale is h.

[
  {
    "molecule": "CC(C)COc1ccc(CNC(=O)N(Cc2ccc(F)cc2)C2CCN(C)CC2)cc1 [Pimavanserin, reference compound]",
    "units.label": "h",
    "half-life": 2.38
  }
]

Exercise: half-life lookup needed for CN1CCC(N(Cc2ccc(F)cn2)C(=O)NCc2ccc(OCC(F)(F)F)cc2)CC1 , thanks.
Key: 5.51

###

Measured Cmax of individual entries
- assay.procedure: In-vivo pharmacokinetic test in rats after intragastric administration
- condition.parameters: rat, po, 46.7 umol/kg, SD rats, 20% Solutol, plasma
Please provide the amount together with its unit, number first.

[
  {
    "compound": "CC(C)COc1ccc(CNC(=O)N(Cc2ccc(F)cc2)C2CCN(C)CC2)cc1 [Pimavanserin, reference compound]",
    "assay.value": "536 nM"
  }
]

Now look at this one.
Exercise: Cmax lookup needed for CN1CCC(N(Cc2ccc(F)cn2)C(=O)NCc2ccc(OCC(F)(F)F)cc2)CC1 , thanks.
Key: 1140 nM

###

- experimental.system: 5-HT2A receptor (Homo sapiens (Human))
- assay.procedure: Screening for 5-HT2A inverse agonistic activity (NIH3T3-5-HT2A R cells, Bright-Glo luciferase, 120 h)
- Type: cell-based
- condition.parameters: NIH3T3-5HT2AR cells, cell inhibition rate
Measured pIC50 of individual entries
For clarity, pIC50 is expressed as the negative log10 of concentration in mol/L.

[
  {
    "chemical.structure": "CN1CCC(N(Cc2ccc(F)cn2)C(=O)NCc2ccc(OCCC(F)F)cc2)CC1",
    "assay.value": 8.18
  }
]

Now look at this one.
Exercise: pIC50 lookup needed for CN1CCC(N(Cc2ccc(F)cn2)C(=O)NCc2ccc(OCCCC(F)F)cc2)CC1 , thanks.
Key: 8.12

###

- experimental.system: UniProt P28223
- assay.procedure: Test for 5-HT2A antagonistic activity (calcium ion antagonism, FLIPR, CHO-K1/5-HT2A cells)
- Format: cell-based
- condition.parameters: 100 nM a-methyl-5-HT, Ca2+ signal
Exam item: assign Fulfilled to entries whose IC50 is below 6 nM and Not fulfilled to entries at or above 6 nM. Note that a value of exactly 6 nM receives Not fulfilled.

[
  {
    "compound": "CN1CCC(N(Cc2ccc(F)cc2)C(=O)NCc2ccc(OCCF)cc2)CC1 [Compound 56]",
    "qualitative.label": "Fulfilled"
  },
  {
    "compound": "CC(C)COc1ccc(CNC(=O)N(CCCN(C)C)Cc2ccc(F)cc2)cc1 [Compound 14]",
    "qualitative.label": "Fulfilled"
  },
  {
    "compound": "CN1CCC(N(Cc2ccc(F)cn2)C(=O)NCc2ccc3c(c2)CCO3)CC1 [Compound 46]",
    "qualitative.label": "Fulfilled"
  }
]

Exercise: Decide: IC50 of CCN1CCC(N(Cc2ccc(F)cn2)C(=O)NCc2ccc(OCC(F)(F)F)cc2)CC1 [Compound 70] strictly below 6 nM?
Key: Not fulfilled

Exercise: Now the same for CN1CCC(N(Cc2ccc(F)cc2F)C(=O)NCc2ccc(OCCF)cc2)CC1 [Compound 75]
Key: Not fulfilled
